Test system: Botulinum neurotoxin type F light chain protease (Clostridium botulinum)
Experiment: Botulinum neurotoxin type F light chain protease inhibition, multiplex microsphere flow cytometry, validation set (AID 588459)
Conditions: multiplex microsphere protease substrate cleavage assay, at 10 µM, stronger effect = higher value
Consider the following compounds; for each one, report its inhibition.
Provide only the numeric value, understood in %.

*Q* Which inhibition reading was recorded for the compound CN(C)[C@@H]1C(=O)C(C(N)=O)=C(O)[C@@]2(O)C(=O)C3=C(O)c4c(O)ccc(Cl)c4[C@@H](O)[C@H]3C[C@@H]12 ?
*A* -5.8

*Q* Look up inhibition for this compound: COc1ccc(C(=O)NCC2OCCc3ccccc32)cc1 (stereo not given)
*A* -0.4

*Q* Recorded inhibition of COc1cc2c(cc1OC)C(c1cc3ccccc3oc1=O)=NC(C)(C)C2 , please.
*A* 0.9

*Q* Reported inhibition for O=C1Cc2ccccc2C(c2ccccc2)N1 (stereo not given) : what is it?
*A* -0.1

*Q* Please give the measured inhibition for this compound: CCC(=O)c1ccc(O)cc1
*A* 1.2
